Source: PubChem BioAssay AID1159580

test.summary: chemical genetic growth profiling, strain panel (AID 1159580);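 further: tested at 20 µM; growth read once vehicle control cultures reached saturation at 30 °C; 1 = growth at the plate median or of vehicle wells; lower values mean less growth of the strain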
condition.info: S. cerevisiae deletion strains, growth OD, locus YER123W, strain YCK3
The campaign covered roughly 5,500 compounds. About 2,000 (36%) were called active. Inconclusive results (about 18%) are left out. No stated cut-off is given here; in the data, active means normalized growth mostly below about 0.91 (no sharp cut-off); inconclusive means no clear call, values can overlap the other calls; inactive means mostly above about 0.92. The list shows a part of the results.
Hello, when you answer, please use one of the following outcomes: True for active, False for inactive

Some solved cases for reference:
Brc1ccc(-c2csc(-c3ccncc3)n2)cc1; False
O=C(CSC1=NNC(c2ccccn2)S1)Nc1ccccc1 (configuration not stated); False
CC(C)(C)c1cc(C(=O)NNc2cccc(Cl)c2)n(Cc2ccccc2)n1; False
Cc1ccc2nc(-c3ccc4c(c3)OCCO4)cn2c1; False
O=[N+]([O-])c1cccc(C2CC(c3ccccc3)=Nc3ccccc3S2)c1 (configuration not stated); False
CCOC(=O)/C(C#N)=C(\Nc1ccc(C(=O)OCC)cc1)SC; False
Cc1ccc(-c2csc(-c3ccncc3)n2)cc1; True
O=S(=O)(Oc1ccc(-c2csnn2)cc1)c1ccccc1Cl; False

Challenge: Could you check what this test reported for `Cc1onc(-c2c(Cl)cccc2Cl)c1C(=O)O/N=C(/N)Cc1ccc(C(C)(C)C)cc1` ?
Response given: False

Challenge: Could you check what this test reported for `O=S(=O)(Nc1ccccc1Oc1ccccc1)c1ccc(-c2ccno2)s1` ?
Response given: False

Challenge: Could you check what this test reported for `COC(=O)c1sccc1NS(=O)(=O)c1cc(Cl)cc(Cl)c1` ?
Response given: False

Challenge: Could you check what this test reported for `Cc1nn(-c2cccc(Cl)c2)c2oc(=O)cc(C(F)(F)F)c12` ?
Response given: True

---

test.summary: chemical genetic growth profiling, strain panel (AID 1159580)
condition.info: S. cerevisiae deletion strains, growth OD, locus YKL190W, strain CNB1, active compounds read low
Screen size: about 5,500 compounds; about 2,000 (36%) were called active. About 18% were inconclusive and are not listed. The list shows a part of the results.
property.name: normalized growth
Respond numerically, and do not add a unit to the figure.

Take a look at these entries with their results.
C[n+]1ccccc1/C=N/O; 1.01
OC[C@H]1O[C@@H](O[C@H]2[C@H](O)[C@@H](O)[C@@H](O)O[C@@H]2CO)[C@H](O)[C@@H](O)[C@@H]1O; 1.01
CC(=O)Oc1ccc(/C=C/c2cc(OC(C)=O)cc(OC(C)=O)c2)cc1; 1
NNCc1cccc(O)c1; 1
CC[N+](C)(C)c1cccc(O)c1; 1.01

Challenge: Tell me normalized growth reported for `OCc1ccccc1-c1ccccc1`
Response given: 1.01

Challenge: Tell me normalized growth reported for `CCCc1c(OCCCCc2nn[nH]n2)ccc(C(C)=O)c1O`
Response given: 1.01

Challenge: Tell me normalized growth reported for CC(N=C(NC#N)Nc1ccncc1)C(C)(C)C (configuration not stated)
Response given: 1.01

Challenge: Tell me normalized growth reported for CC(CCC(=O)O)[C@H]1CCC2C3CC[C@@H]4CC(=O)CC[C@]4(C)C3C=C[C@@]21C (some centres not stated)
Response given: 1.04

Challenge: Tell me normalized growth reported for `NCCCCCCNS(=O)(=O)c1cccc2c(Cl)cccc12`
Response given: 0.996

Challenge: Tell me normalized growth reported for `Cc1cc(=O)[nH]c(=S)[nH]1`
Response given: 1

Challenge: Tell me normalized growth reported for `COc1c(Br)cc(/C(N)=N\OC(=O)c2c(-c3c(Cl)cccc3Cl)noc2C)cc1Br`
Response given: 1.01

---

Reported normalized growth is given for each of the following compounds.
test.summary: chemical genetic growth profiling, strain panel (AID 1159580);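 further: tested at 20 µM; growth read once vehicle control cultures reached saturation at 30 °C; 1 = growth at the plate median or of vehicle wells; lower values mean less growth of the strain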
condition.info: S. cerevisiae deletion strains, growth OD, locus YOR316C, strain cot1, active compounds read low
Hit rate of the full screen: of about 5,500 compounds, about 2,000 (36%) were called active. Another 18% or so got no clear call; they are omitted. The list shows a part of the results.
Respond numerically, and do not add a unit to the figure.

COc1cc(C(C)=O)cc(OC)c1O; 0.998

Challenge: Tell me normalized growth reported for `C/C1=C/CC(C)(C)/C=C/C/C(C)=C/CC1`
Response given: 1.01

Challenge: Tell me normalized growth reported for `CC(=O)c1cc(CC=C(C)C)c(O)c(CC=C(C)C)c1`
Response given: 0.979

Challenge: Tell me normalized growth reported for `C[n+]1ccccc1/C=N/O`
Response given: 1

Challenge: Tell me normalized growth reported for `CS(=O)(=O)Nc1ccc([N+](=O)[O-])cc1Oc1ccccc1`
Response given: 0.961

Challenge: Tell me normalized growth reported for `CCOC(=O)[C@H](CCc1ccccc1)N[C@@H](C)C(=O)N1CCC[C@H]1C(=O)O`
Response given: 1.02

Challenge: Tell me normalized growth reported for CC(=O)OCC(=O)[C@@]1(O)[C@H](C)CC2C3CCC4=CC(=O)C=C[C@]4(C)[C@@]3(F)[C@@H](O)C[C@@]21C (stereo not given in full)
Response given: 1

Challenge: Tell me normalized growth reported for `CC(=O)Oc1cccc(O)c1`
Response given: 1.01

Challenge: Tell me normalized growth reported for `O=C(O)c1cc(O)c2c(c1)[C@@H]([C@H]1c3cc(C(=O)O)cc(O)c3C(=O)c3c(O[C@H]4O[C@H](CO)[C@@H](O)[C@H](O)[C@H]4O)cccc31)c1cccc(O[C@H]3O[C@H](CO)[C@@H](O)[C@H](O)[C@H]3O)c1C2=O`
Response given: 1

Challenge: Tell me normalized growth reported for `CC(=O)c1ccc(O)c(CC=C(C)C)c1`
Response given: 0.969

---

Reported normalized growth is given for each of the following compounds.
test.summary: chemical genetic growth profiling, strain panel (AID 1159580);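 further: tested at 20 µM; growth read once vehicle control cultures reached saturation at 30 °C; 1 = growth at the plate median or of vehicle wells; lower values mean less growth of the strain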
condition.info: S. cerevisiae deletion strains, growth OD, locus YJL134W, strain LCB3, active compounds read low
About 2,000 (36%) of roughly 5,500 compounds were called active. Inconclusive results (about 18%) are left out. This is one part of the list.
Respond numerically, and do not add a unit to the figure.

CC[N+](C)(C)c1cccc(O)c1; 0.991
CCN(CC)CCOC(=O)C1(C2CCCCC2)CCCCC1; 1.01
CN(C)[C@@H]1C(=O)C(C(N)=O)=C(O)[C@@]2(O)C(=O)C3=C(O)c4c(O)cccc4[C@@](C)(O)[C@H]3[C@H](O)[C@@H]12; 1.01
NNCc1cccc(O)c1; 0.987

Challenge: Tell me normalized growth reported for `O=C1NC(O)=NC1(c1ccccc1)c1ccccc1`
Response given: 1

Challenge: Tell me normalized growth reported for `COC(=O)c1c(C)c2c(c(C)c1OC)OC(=O)c1c(C)c(Cl)c(OC)c(Cl)c1O2`
Response given: 1.01

Challenge: Tell me normalized growth reported for `C=C1c2cccc(O)c2C(O)=C2C(=O)[C@]3(O)C(O)=C(C(N)=O)C(=O)[C@@H](N(C)C)[C@@H]3[C@@H](O)[C@H]12`
Response given: 0.992

Challenge: Tell me normalized growth reported for `C=C1c2c(Cl)ccc(O)c2C(O)=C2C(=O)[C@]3(O)C(O)=C(C(N)=O)C(=O)[C@@H](N(C)C)[C@@H]3[C@@H](O)[C@H]12`
Response given: 0.98

Challenge: Tell me normalized growth reported for `Nc1ccc(S(=O)(=O)NC(=O)c2ccccc2)cc1`
Response given: 1.01

Challenge: Tell me normalized growth reported for CC(C)c1ccc2c(c1)CCC1[C@](C)(CN)CCC[C@]21C (stereo not given in full)
Response given: 0.987

Challenge: Tell me normalized growth reported for `COc1ccc([C@@H]2CC(=O)c3c(O)cc(O[C@@H]4O[C@H](CO[C@H]5O[C@@H](C)[C@H](O)[C@@H](O)[C@H]5O)[C@@H](O)[C@H](O)[C@H]4O)cc3O2)cc1O`
Response given: 0.994

Challenge: Tell me normalized growth reported for CCN(CC)CCOC(=O)C(c1ccccc1)C1CCCCC1 (stereo not given)
Response given: 0.998

Challenge: Tell me normalized growth reported for COc1ccccc1OCC(O)CO (stereo not given)
Response given: 1

Challenge: Tell me normalized growth reported for `O=C(O)c1cccnc1`
Response given: 0.991

Challenge: Tell me normalized growth reported for CC(C)c1ccc2c(c1)CCC1C(C)(C(N)=O)CCCC21C (stereo not given)
Response given: 0.983

Challenge: Tell me normalized growth reported for `C[C@H]1c2cccc(O)c2C(O)=C2C(=O)[C@]3(O)C(O)=C(C(N)=O)C(=O)[C@@H](N(C)C)[C@@H]3[C@@H](O)[C@@H]21`
Response given: 1

---

test.summary: chemical genetic growth profiling, strain panel (AID 1159580);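 further: tested at 20 µM; growth read once vehicle control cultures reached saturation at 30 °C; 1 = growth at the plate median or of vehicle wells; lower values mean less growth of the strain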
condition.info: S. cerevisiae deletion strains, growth OD, locus YCR088W, strain abp1, active compounds read low
The campaign covered roughly 5,500 compounds. About 2,000 (36%) were called active. Another 18% or so got no clear call; they are omitted. Some of the results follow.
property.name: normalized growth

C[C@H]1c2cccc(O)c2C(O)=C2C(=O)[C@]3(O)C(O)=C(C(N)=O)C(=O)[C@@H](N(C)C)[C@@H]3[C@@H](O)[C@@H]21; 0.985 (inactive)

Challenge: Tell me normalized growth reported for COc1ccccc1OCC(O)CO (stereo unspecified)
Response given: 1.02 (inactive)

Challenge: Tell me normalized growth reported for `CC(C)C[C@@H](CN)CC(=O)O`
Response given: 1.02 (inactive)

Challenge: Tell me normalized growth reported for `CN(C)CCCN1c2ccccc2Sc2ccc(Cl)cc21`
Response given: 0.0794 (active)

Challenge: Tell me normalized growth reported for `CN(C)CCCN1c2ccccc2CCc2ccccc21`
Response given: 1.01 (inactive)

Challenge: Tell me normalized growth reported for `O=C(NCO)c1cccnc1`
Response given: 1 (inactive)

Challenge: Tell me normalized growth reported for `NC(=O)c1cccnc1`
Response given: 0.97 (inactive)

Challenge: Tell me normalized growth reported for CC(C)=CC1C(C(=O)O)C1(C)C (stereo unspecified)
Response given: 0.983 (inactive)

Challenge: Tell me normalized growth reported for `O=C(O)c1ccccc1`
Response given: 0.996 (inactive)

Challenge: Tell me normalized growth reported for `CN(C)[C@@H]1C(=O)C(C(N)=O)=C(O)[C@@]2(O)C(=O)C3=C(O)c4c(O)ccc(Cl)c4[C@@H](O)[C@H]3C[C@@H]12`
Response given: 0.993 (inactive)

Challenge: Tell me normalized growth reported for C[C@H](CCC(=O)O)[C@H]1CCC2C3C(=O)CC4CC(=O)CC[C@]4(C)C3CC(=O)[C@@]21C (stereo partly specified)
Response given: 0.987 (inactive)

Challenge: Tell me normalized growth reported for `CN(C)[C@@H]1C(=O)C(C(N)=O)=C(O)[C@@]2(O)C(=O)C3=C(O)c4c(O)cccc4[C@@](C)(O)[C@H]3[C@H](O)[C@@H]12`
Response given: 1.02 (inactive)

Challenge: Tell me normalized growth reported for `CNNC`
Response given: 1.01 (inactive)
